# Assay Summary: self-splicing fitness, log relative to wild type (ln ratio); higher = more splicing; Tetrahymena group I intron in knt gene, E. coli kanamycin selection, DiMSum; sequences stand for … in CUCUCU…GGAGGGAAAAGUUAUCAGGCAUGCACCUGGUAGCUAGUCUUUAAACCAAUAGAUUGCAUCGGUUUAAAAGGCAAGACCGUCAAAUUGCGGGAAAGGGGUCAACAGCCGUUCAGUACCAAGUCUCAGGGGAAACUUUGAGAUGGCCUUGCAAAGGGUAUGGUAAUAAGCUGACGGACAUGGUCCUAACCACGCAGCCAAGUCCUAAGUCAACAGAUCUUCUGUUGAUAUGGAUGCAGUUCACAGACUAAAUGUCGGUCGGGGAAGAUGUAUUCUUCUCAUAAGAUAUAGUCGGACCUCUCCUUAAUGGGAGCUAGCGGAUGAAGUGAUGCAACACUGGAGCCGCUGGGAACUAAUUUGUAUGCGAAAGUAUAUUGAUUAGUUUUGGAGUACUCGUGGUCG;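 also: selection with 25 µg/mL kanamycin versus none on LB agar overnight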
# Test Context: 30 °C
Recorded self-splicing fitness (ln) determines the group label, using lo (below -3), med (-3 to below -2), hi (-2 or more)

[[record]]
sequence_content = "AGCCAGCAAUAUUACGGCCA"
assigned_class = "hi"

[[record]]
sequence_content = "AUGCAGCAAUAUUACGAGAA"
assigned_class = "lo"

[[record]]
sequence_content = "GGCCAGCAAUAUUACGAGUG"
assigned_class = "med"

[[record]]
sequence_content = "UGGUAGCAAUAUUACGGCAG"
assigned_class = "hi"

[[record]]
sequence_content = "ACCAAGCAAUAUUACGAGCC"
assigned_class = "lo"

[[record]]
sequence_content = "UGAAAGCAAUAUUACGUCGU"
assigned_class = "lo"

[[record]]
sequence_content = "AAGUAGCAAUAUUACGUCGU"
assigned_class = "hi"

[[record]]
sequence_content = "AUCAAGCAAUAUUACGAUAU"
assigned_class = "hi"

[[record]]
sequence_content = "AGCUAGCAAUAUUACGUGCU"
assigned_class = "lo"

[[record]]
sequence_content = "CAUAAGCAAUAUUACGGCAG"
assigned_class = "hi"

[[record]]
sequence_content = "CGACAGCAAUAUUACGUGAA"
assigned_class = "hi"

[[record]]
sequence_content = "AUCGAGCAAUAUUACGAUAG"
assigned_class = "lo"

[[record]]
sequence_content = "UCUCAGCAAUAUUACGUCGG"
assigned_class = "hi"

[[record]]
sequence_content = "CUUUAGCAAUAUUACGCUAC"
assigned_class = "med"

[[record]]
sequence_content = "UUUCAGCAAUAUUACGACAA"
assigned_class = "hi"

[[record]]
sequence_content = "UAGCAGCAAUAUUACGAUCU"
assigned_class = "hi"

[[record]]
sequence_content = "UGGUAGCAAUAUUACGUUGG"
assigned_class = "hi"

[[record]]
sequence_content = "UCGUAGCAAUAUUACGUCAG"
assigned_class = "lo"

[[record]]
sequence_content = "GCUAAGCAAUAUUACGUAGC"
assigned_class = "lo"

[[record]]
sequence_content = "UCAUAGCAAUAUUACGGUUC"
assigned_class = "lo"

[[record]]
sequence_content = "UAAAAGCAAUAUUACGGUAG"
assigned_class = "hi"

[[record]]
sequence_content = "AUCAAGCAAUAUUACGAAGU"
assigned_class = "med"

[[record]]
sequence_content = "UUACAGCAAUAUUACGACCA"
assigned_class = "hi"

[[record]]
sequence_content = "ACGAAGCAAUAUUACGACUA"
assigned_class = "hi"

[[record]]
sequence_content = "GCUAAGCAAUAUUACGAUUG"
assigned_class = "med"

[[record]]
sequence_content = "UUGUAGCAAUAUUACGCAUA"
assigned_class = "hi"

[[record]]
sequence_content = "ACGAAGCAAUAUUACGCGUC"
assigned_class = "lo"

[[record]]
sequence_content = "UUUCAGCAAUAUUACGCCGU"
assigned_class = "lo"

[[record]]
sequence_content = "CCACAGCAAUAUUACGCAUU"
assigned_class = "lo"

[[record]]
sequence_content = "UUAUAGCAAUAUUACGAGGA"
assigned_class = "med"

[[record]]
sequence_content = "GUAAAGCAAUAUUACGUGCG"
assigned_class = "hi"

[[record]]
sequence_content = "GGGGAGCAAUAUUACGACUA"
assigned_class = "hi"

[[record]]
sequence_content = "UCAUAGCAAUAUUACGCUAU"
assigned_class = "med"

[[record]]
sequence_content = "UUCUAGCAAUAUUACGAGGA"
assigned_class = "med"

[[record]]
sequence_content = "CAAAAGCAAUAUUACGGUAC"
assigned_class = "lo"

[[record]]
sequence_content = "GGCUAGCAAUAUUACGACGG"
assigned_class = "lo"

[[record]]
sequence_content = "UAAAAGCAAUAUUACGUCGC"
assigned_class = "lo"

[[record]]
sequence_content = "GGGCAGCAAUAUUACGUGCG"
assigned_class = "hi"

[[record]]
sequence_content = "GUCUAGCAAUAUUACGUGUU"
assigned_class = "hi"

[[record]]
sequence_content = "CGCCAGCAAUAUUACGGCCU"
assigned_class = "hi"

[[record]]
sequence_content = "GCUGAGCAAUAUUACGUAAG"
assigned_class = "hi"

[[record]]
sequence_content = "UUCGAGCAAUAUUACGUUAC"
assigned_class = "lo"

[[record]]
sequence_content = "GAUCAGCAAUAUUACGCGAA"
assigned_class = "hi"

[[record]]
sequence_content = "UCCUAGCAAUAUUACGGCAU"
assigned_class = "lo"

[[record]]
sequence_content = "GCUCAGCAAUAUUACGCAAC"
assigned_class = "hi"

[[record]]
sequence_content = "CACCAGCAAUAUUACGCCCC"
assigned_class = "lo"

[[record]]
sequence_content = "GGCCAGCAAUAUUACGCAUC"
assigned_class = "hi"

[[record]]
sequence_content = "GGCGAGCAAUAUUACGAAAC"
assigned_class = "med"


====

# Assay Summary: self-splicing fitness, log relative to wild type (ln ratio); higher = more splicing; Tetrahymena group I intron in knt gene, E. coli kanamycin selection, DiMSum; sequences stand for … in CUCUCU…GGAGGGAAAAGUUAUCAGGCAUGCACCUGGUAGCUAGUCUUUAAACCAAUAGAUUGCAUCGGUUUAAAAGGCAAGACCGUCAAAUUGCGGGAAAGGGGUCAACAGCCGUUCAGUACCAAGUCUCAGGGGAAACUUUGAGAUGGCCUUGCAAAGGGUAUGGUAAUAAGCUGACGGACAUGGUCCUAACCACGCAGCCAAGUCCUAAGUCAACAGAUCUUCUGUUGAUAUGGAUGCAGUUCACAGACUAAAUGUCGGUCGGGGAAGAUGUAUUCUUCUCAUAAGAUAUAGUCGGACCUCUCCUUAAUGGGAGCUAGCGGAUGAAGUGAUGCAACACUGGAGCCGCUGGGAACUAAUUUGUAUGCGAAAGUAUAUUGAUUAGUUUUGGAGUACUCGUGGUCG
# Test Context: 30 °C
Label criterion met when self-splicing fitness (ln) >= -2; otherwise criterion not met.

[[record]]
sequence_content = "GUAAAGCAAUAUUACGGAAU"
assigned_class = "criterion met"

[[record]]
sequence_content = "ACUAAGCAAUAUUACGAGCC"
assigned_class = "criterion not met"

[[record]]
sequence_content = "AAGUAGCAAUAUUACGAGGG"
assigned_class = "criterion not met"

[[record]]
sequence_content = "UCAUAGCAAUAUUACGCAGU"
assigned_class = "criterion not met"

[[record]]
sequence_content = "AUGAAGCAAUAUUACGGGCC"
assigned_class = "criterion met"

[[record]]
sequence_content = "AUUUAGCAAUAUUACGGAUG"
assigned_class = "criterion met"

[[record]]
sequence_content = "GAAUAGCAAUAUUACGAUGA"
assigned_class = "criterion met"

